Measured melting point of individual entries
OBSERVED PROPERTY: melting point

> print(dat)
                                   compound  observed.property       measured
1  COc1cc(C(O)c2ccnn2C)c(Cl)c(Cl)c1OC (centres undefined)      melting point  149 to 154 °C
2  CC(=O)Nc1ccc(S(=O)(=O)Nc2cccc(N(C)C(C)=O)c2)cc1      melting point  258 to 260 °C
3  COCOc1cc(Cl)ccc1-c1cc(-c2cccc(C(=O)NCCCn3ccnc3)c2)c(C#N)c(NC(=O)c2ccccc2OC)n1      melting point  100 to 101 °C
4  CCCn1nc(C(C)C)c(C(=O)O)c1Cc1ccc(-c2ccccc2NS(=O)(=O)C(F)(F)F)cc1      melting point    75 to 78 °C

====

Measured melting point of individual entries
OBSERVED PROPERTY: melting point

> print(dat)
                                    molecule  observed.property       measured
 1       O=C1NCc2c1ccc(Nc1ccccc1)c2Nc1ccccc1      melting point         225 °C
 2             FC(F)(F)COc1ccc(Cc2ccncc2)cc1      melting point    51 to 53 °C
 3  Cc1onc(-c2ccc(-c3cscn3)cc2)c1-c1ccc(S(C)(=O)=O)c(F)c1      melting point         130 °C
 4  COC1OCC[C@@H]1NC(=O)[C@H](Cc1ccccc1)NC(=O)CNC(=O)COc1ccc2c(c1)Nc1ccccc1S2 (some centres not stated)      melting point  203 to 204 °C
 5             CSc1ccc(C(=N)Nc2ccc(C)cc2)cc1      melting point  143 to 145 °C
 6  CC(=O)NCc1ccc2oc([N+](=O)[O-])c(-c3ccccc3)c2c1      melting point  201 to 203 °C
 7       COC(=O)c1cnn(-c2cccc(Cl)c2)c1C(N)=O      melting point  191 to 192 °C
 8  CC1CCC(=NNc2ccccc2)c2ncc(CC(=O)O)c(=O)n21 (configuration not stated)      melting point  160 to 162 °C
 9             NS(=O)(=O)CCCCCSc1ccc2nccn2n1      melting point  120 to 121 °C
10  CCOC(=O)CCC(=NOCc1ccc(OCc2nc(-c3ccccc3)oc2C)cc1)c1ccc(Oc2ccccc2)cc1      melting point  118 to 119 °C
11  CS(=O)(=O)Oc1ccc(-c2c3ccccc3c(Cl)c3sc4ccccc4c23)cc1      melting point  155 to 158 °C
12          CN1C(=S)COC1=Nc1cccc(C(F)(F)F)c1      melting point    84 to 86 °C
13  CN(c1ccc(Cl)cc1)C1CCN(c2ccc(OC[C@@]3(C)Cn4cc([N+](=O)[O-])nc4O3)cc2)CC1      melting point  174 to 175 °C
14  COC(=O)C1=Cc2cc([N+](=O)[O-])ccc2N(C)CCC1      melting point  127 to 129 °C
15  CC(C)(C)OC(=O)N1C[C@H](Oc2nccc(NC(=O)c3ccccc3)n2)C[C@@H]1C(=O)OC(c1ccccc1)c1ccccc1      melting point  145 to 147 °C
16   Cc1cc(NS(=O)(=O)c2n[nH]c(NC=O)n2)ccc1Br      melting point  282 to 284 °C
17                 Clc1ccc2c(c1)CNc1ccccc1C2      melting point  132 to 135 °C
18            Cc1cccc(OCC(F)(F)F)c1NC(=O)CCl      melting point  128 to 129 °C
19  CCCn1c(=O)c2[nH]c(/C=C/c3ccc(O)c(OC)c3)nc2n(CCC)c1=O      melting point  243 to 245 °C
20  CNC(=O)N(O)C(C)c1ccc(-n2c(C)ccc2C)cc1 (configuration not stated)      melting point  131 to 133 °C
21  OCC1OC(n2c(Br)nc3cc(Cl)c(Cl)cc32)C(O)C1O (configuration not stated)      melting point         169 °C
22  CC(CCC(=O)NC(C)(C)CO)C1CCC2C3C(=O)CC4CC(O)CCC4(C)C3CC(O)C12C (configuration not stated)      melting point  229 to 231 °C

====

Measured melting point of individual entries
OBSERVED PROPERTY: melting point

> print(dat)
                                   compound       measured
1  O=C1Cc2ccc3ccccc3c2OC1C(=O)c1cccc(Cl)c1 (stereo unspecified)  206 to 208 °C
2  CC(C)C[C@@H](C(=O)O)N1C(=O)NC(C(F)(F)F)(C(F)(F)F)C1=O  154 to 156 °C
3  Cc1ccc(C=C2NC(=O)N(c3cc(F)ccc3F)C2=O)cc1  218 to 224 °C
4  O=C(NCCOc1cccnn1)C1Cc2ccccc2N1S(=O)(=O)c1ccc(-c2cccc(C(F)(F)F)c2)cc1 (stereo unspecified)    65 to 71 °C
5            Cn1cc(C(N)=O)c(=O)c2ccc(F)cc21  317 to 318 °C
6  CC(c1ccc2[nH]c(C(F)(F)F)nc2c1)n1ccnc1 (stereo unspecified)         165 °C

====

OBSERVED PROPERTY: melting point

> print(dat)
                                    compound       measured
 1  O=C(O)c1ccc2c(c1)S(=O)(=O)c1cc(C(=O)O)ccc1O2  399 to 401 °C
 2                  CC(=O)Oc1c(C)ccc2ccccc12    81 to 83 °C
 3  CCOC(=O)COc1ccc2c(C)c(CCN(CC)CC)c(=O)oc2c1Br  150 to 151 °C
 4  COC1=C(OC)C(=O)C2=C(CCC(CCOc3cc(OC)c(OC)c(OC)c3)CC2)C1=O    91 to 93 °C
 5          O=C(O)Cc1ccc2c(c1)Cc1ccccc1CC2=O  178 to 181 °C
 6  COC(=O)[C@H]1CC[C@H](n2cnn(-c3ccc(C4CCN(C(=O)C(F)(F)F)CC4)cc3)c2=O)CC1  184 to 186 °C
 7  CC(=O)OC(CCC(C)(C)C)C(C)C1CCC2C3CC=C4CC(O)CCC4(C)C3CCC12C (centres undefined)  210 to 212 °C
 8  COc1cccc(-c2csc(N3CCN(C(=O)Nc4onc(C)c4C)CC3)n2)c1  158 to 159 °C
 9                        O=C(O)C(=O)c1ccco1    81 to 91 °C
10  O=C1CC(O)CN1S(=O)(=O)c1ccc(N2CCCCCC2)cc1 (centres undefined)  170 to 172 °C
11  Nc1cc(OCc2ccccc2)ccc1NC(=O)c1ccc(OCc2ccccc2)c(C23CC4CC(CC(C4)C2)C3)c1  166 to 170 °C
12          CCOc1ccccc1CNC(=O)c1ccc2cnccc2n1    79 to 80 °C
13    O=S(=O)(Cl)CCCCCCCc1ccc(OCc2ccccc2)cc1    33 to 35 °C
14                   Nc1ccc(F)c(-c2ccncc2)n1  189 to 190 °C

====

Measured melting point of individual entries
OBSERVED PROPERTY: melting point

> print(dat)
                              record.smiles  observed.property       measured
1  CCOC(=O)C(=O)Cc1c[nH]c2ccc(OCc3ccccc3)cc12      melting point  169 to 170 °C
2       CC(C)(C)c1ccc2c(O)c(-c3ccccc3)sc2n1      melting point  181 to 183 °C
3          CCCC(=O)NCCC1=CCc2cc(F)c(OC)cc21      melting point    90 to 92 °C
4  COc1cc(Nc2c(C#N)cnc3cc(/C=C/CCN4CCOCC4)ccc23)c(Cl)cc1Cl      melting point    88 to 89 °C
5  CN1CCOc2ccc(S(=O)(=O)n3c(Cc4ccc(C(=O)O)cc4)cc4cc(C(F)(F)F)ccc43)cc21      melting point         206 °C
6            COC(=O)CCCC(=O)c1ccc2c(c1)CCO2      melting point    80 to 81 °C

====

Measured melting point of individual entries
OBSERVED PROPERTY: melting point

> print(dat)
                                   compound  observed.property       measured
1  CC(=O)[NH+]([O-])C[C@@H]1CN(c2ccc(N3CCN(S(C)(=O)=O)CC3)c(F)c2)C(=O)O1 (some centres undefined)      melting point  168 to 170 °C
2  COCc1cnc2c(NC(=O)c3c(Cl)cccc3Cl)cccc2c1CO      melting point  199 to 200 °C
3  Cc1ccc(C(=O)Nc2ccc(-c3ccccc3)c(C(F)(F)F)c2)cc1Nc1nccc(-c2cccnc2)n1      melting point  172 to 174 °C
4          COC(=O)c1c(C=O)n(C)c2ccc(OC)cc12      melting point  133 to 134 °C
